B1: FAM189A2 (parent)
chain: CALNALTTTVCLVAAALRYLQIFA

# Variants of: B1
# assay_procedure: protein stability index of a GFP-peptide fusion (GPS, HEK-293T) (PSI 1-6); higher = more stable;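 further: lentivirally expressed fusions sorted by FACS into six bins by GFP to DsRed ratio, PSI derived from sequencing read proportions per bin multiplied by bin number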
# condition_details: c terminus: a fixed tail appended
The following variants are shown together with reported protein stability index values.
Answer using only a numeral; do not append any unit.

Incoming: Return the recorded protein stability index value; entry: F23M
Outgoing: 4.05

Incoming: Return the recorded protein stability index value; entry: F23D
Outgoing: 2.47

Incoming: Return the recorded protein stability index value; entry: L6M
Outgoing: 4.19

Incoming: Return the recorded protein stability index value; entry: L17V
Outgoing: 1.38

Incoming: Return the recorded protein stability index value; entry: L20M
Outgoing: 3.29

Incoming: Return the recorded protein stability index value; entry: V10D
Outgoing: 4.46

Incoming: Return the recorded protein stability index value; entry: A16K
Outgoing: 4.22

Incoming: Return the recorded protein stability index value; entry: A15H
Outgoing: 2.6

Incoming: Return the recorded protein stability index value; entry: A16P
Outgoing: 2.79
